Each entry below lists one item and its recorded GI50 value.
Tested on: MOLT-4 leukemia
Test: NCI tumour cell line growth inhibition, 48 h

Field: example entries. Status: answers known.
Query :: Given N#CC(C#N)=C/C=C(\Cl)c1ccc(Cl)cc1 , state its recorded GI50.
Result :: 0.696 µM

Query :: Similarly, C/C(=N/O)c1cccc(Nc2cc(-n3nnc4ccccc43)nc3ccccc23)c1 ?
Result :: 4.05 µM

Query :: Similarly, COc1cc(/C=C/C(=O)/C=C/c2cc(OC)c3c(c2)OCO3)cc2c1OCO2 ?
Result :: 9 µM

---
Query :: Given COc1ccc(C2=Nn3c(nnc3-c3cc(Cl)cc(Cl)c3Cl)SC2)cc1 , state its recorded GI50.
Result :: 1.49 µM

Query :: Similarly, COc1cccc(-c2nc3cc(NC(=O)c4ccc(Cl)c(C#N)c4)ccc3o2)c1 ?
Result :: > 100 µM

Query :: Similarly, COc1cc(/C=C/C(=O)c2c(C)nc3ccccc3c2/C=C/c2ccccc2)cc(OC)c1OC ?
Result :: 2.21 µM

Query :: Similarly, CN1CCC(CNc2cc(C3(C(=O)Nc4cc(C(=O)Nc5ccc(Cl)c(C(F)(F)F)c5)ccc4F)CC3)ncn2)CC1 ?
Result :: 2.03 µM

* * *

System: SW-620 colon
Experiment: NCI tumour cell line growth inhibition, 48 h
Each entry below lists one item and its recorded TGI value.

Field: example entries. Status: answers known.
Query :: Given CCOC(=O)NC(=O)c1cn(CCN2CCN(C(=O)NCCCCCCNC(=O)N3CCN(CCn4cc(C(=O)NC(=O)OCC)c(=O)[nH]c4=O)CC3)CC2)c(=O)[nH]c1=O , state its recorded TGI.
Result :: > 100 µM

Query :: Similarly, O=C(O)CCc1nc2c(n1-c1ccccc1)C(=O)c1ccccc1C2=O ?
Result :: > 100 µM

Query :: Similarly, C#CCNC(CSSCC(N)C(=O)O)C(=O)O (stereo unspecified) ?
Result :: > 100 µM

---
Query :: Given O=C1/C(=C/c2ccc([N+](=O)[O-])cc2)CN(C(=O)CCN2CCC(=NO)CC2)C/C1=C\c1ccc([N+](=O)[O-])cc1 , state its recorded TGI.
Result :: 0.982 µM

Query :: Similarly, O=C(NCCCOC(=O)CCCCCCCCC(=O)OCCCNC(=O)NC(=O)c1c[nH]c(=O)[nH]c1=O)NC(=O)c1c[nH]c(=O)[nH]c1=O ?
Result :: > 100 µM

Query :: Similarly, CN(C)c1cc2ccccc2oc1=O ?
Result :: > 100 µM

* * *

Each entry below lists one item and its recorded TGI value.
System: SK-OV-3 ovarian
Test: NCI tumour cell line growth inhibition, 48 h

Field: example entries. Status: answers known.
Query :: Given CSc1ncc2c(n1)C(C#N)C1Sc3ccccc3N1C2=O (stereo not given) , state its recorded TGI.
Result :: > 100 µM

Query :: Similarly, Cc1ccc2cnc(N)c(C#Cc3cc(C(=O)Nc4ccc(CN5CCN(C)CC5)c(C(F)(F)F)c4)cnc3C)c2c1 ?
Result :: 4.19 µM

Query :: Similarly, C/C=C/C(C#N)O[Si](C)(C)C (stereo not given) ?
Result :: > 100 µM

Query :: Similarly, CCOC(=O)c1c(C)n(Cc2ccc(Cl)cc2Cl)c2c1cc(O)c1[nH]c3c(c12)CCCC3 ?
Result :: > 100 µM

Query :: Similarly, CCSC1=NC2C(N(CC)C(=O)N2CC)N1/N=C/C=C/c1ccccc1[N+](=O)[O-] (stereo not given) ?
Result :: > 100 µM

---
Query :: Given CC1=C2C(=C[C@@](C)(CO)[C@@H]2OC(=O)N(C)CCN(C)C(=O)OC(C)(C)C)C(=O)[C@](C)(O)C12CC2 , state its recorded TGI.
Result :: 23 µM

Query :: Similarly, Cc1ccc2nc(SCC(=O)N=Nc3c(O)[nH]c4ccccc34)n(-c3ccccc3)c(=O)c2c1 ?
Result :: 26.7 µM

Query :: Similarly, C=C(c1ccccc1)C1(O)CCCCC1N (stereo not given) ?
Result :: > 100 µM

Query :: Similarly, C1=C(c2ccccc2)SC(N2CCCCC2)S1 (stereo not given) ?
Result :: > 100 µM

Query :: Similarly, CCOC(=O)Cc1nc2ccc3c(c2[nH]c1=O)C(=O)c1ccccc1C3=O ?
Result :: > 100 µM

* * *

Tested on: SR leukemia
Experiment: NCI tumour cell line growth inhibition, 48 h
Each entry below lists one item and its recorded TGI value.

Query :: Given CN1CCN(C(=S)N(C)C(=O)c2ccco2)CC1 , state its recorded TGI.
Result :: > 100 µM

Query :: Similarly, CCOC(=O)Oc1c(OC)cc(C(=O)c2ccc(OC)c(O)c2OC)cc1OC ?
Result :: > 100 µM

// below: TGI requested for another compound
Query :: Given O=c1ncccn1[C@@H]1O[C@H](CO)[C@H](O)C1O (stereo not given in full) , state its recorded TGI.
Result :: > 100 µM

* * *

System: SW-620 colon
Assay: NCI tumour cell line growth inhibition, 48 h
Each entry below lists one item and its recorded TGI value.
The answer is to be given in µM; state only the numeric part.

Field: example entries. Status: answers known.
Query :: Request: TGI, test system SW-620 colon, entry CCC/C(Cl)=N\OC(=O)Nc1ccc(F)cc1
Result :: 27.2

Query :: Similarly, Cc1ccc(C)c(NC(=O)C(=O)C(C(=O)c2ccc3ccccc3c2)C2OC(=O)c3ccccc32)c1 (configuration not stated) ?
Result :: 29.4

---
Query :: Request: TGI, test system SW-620 colon, entry O=C(Nc1ccccc1F)c1cc2ccc(O)cc2oc1=Nc1cccc(F)c1
Result :: 32.6

* * *

Each entry below lists one item and its recorded TGI value.
Test system: HOP-62 NSCLC
Assay: NCI tumour cell line growth inhibition, 48 h

Field: example entries. Status: answers known.
Query :: Given C=C(c1ccccc1)C1(O)CCCCC1N (configuration not stated) , state its recorded TGI.
Result :: > 100 µM

Query :: Similarly, O=C1OCC2=C1C(c1cccc(F)c1)c1cc3c(cc1N2CCO)OCO3 (configuration not stated) ?
Result :: > 50 µM

Query :: Similarly, O=C(Oc1cccnc1)c1cccnc1Nc1ccnc(C(F)(F)F)c1 ?
Result :: 36 µM

Query :: Similarly, COC(=O)C1(NC(=O)C(CC(=O)OCc2ccccc2)NC(=O)OCc2ccccc2)CCCCCC1 (configuration not stated) ?
Result :: 67.5 µM

Query :: Similarly, CC(=O)NC1C(OCc2ccccc2)OC(CO)C(O)C1OCC(=O)N1CCCC1C(=O)N[C@@H](CCC(=O)NCCCCNc1c2ccccc2nc2cccc([N+](=O)[O-])c12)C(N)=O (some centres not stated) ?
Result :: > 100 µM

---
Query :: Given COc1ccc(C2=Nn3c(nnc3-c3cc(Cl)cc(Cl)c3Cl)SC2)cc1 , state its recorded TGI.
Result :: > 36.2 µM

Query :: Similarly, O=c1oc2ccccc2c2c1Sc1ccccc1N2 ?
Result :: > 100 µM

* * *

System: RPMI-8226 leukemia
Assay: NCI tumour cell line growth inhibition, 48 h
recorded_metric: TGI

Field: example entries. Status: answers known.
Query :: Given COc1ccc2c(c1)C(=O)/C(=C/c1cccc(OCC(=O)c3ccccc3)c1)CC2 , state its recorded TGI.
Result :: 5.91 µM

Query :: Similarly, IC[P+]1(c2ccccc2)CCCC1 ?
Result :: > 100 µM

---
Query :: Given CCOC(=O)C(C#N)(Cc1c[nH]c2ccccc12)NC(C)=O (stereo not drawn) , state its recorded TGI.
Result :: > 100 µM

* * *

Tested on: COLO 205 colon
Assay: NCI tumour cell line growth inhibition, 48 h
Each entry below lists one item and its recorded TGI value.

Query :: Given Cc1c2cnccc2c(C)c2c1c1cc(C#N)ccc1n2C , state its recorded TGI.
Result :: 1.08 µM

Query :: Similarly, CC(N=NNc1ccc(-c2nc3ccccc3[nH]2)cc1)C(=O)O (stereo not drawn) ?
Result :: > 100 µM

Query :: Similarly, C=CCn1c(=O)c(C)cn(COCCO)c1=O ?
Result :: > 100 µM

Query :: Similarly, Cc1c(OC(C)C(=O)O)ccc2c(-c3ccccc3)cc(=O)oc12 (stereo not drawn) ?
Result :: > 100 µM

Query :: Similarly, CC(C)(C)c1ccccc1N1C(=O)c2ccc3c4c(ccc(c24)C1=O)N(c1ccccc1C(C)(C)C)C3=O ?
Result :: > 100 µM

Query :: Similarly, O=C(N/N=C/c1ccccc1O)N/N=C/c1ccccc1O ?
Result :: > 100 µM

* * *

Test system: SN12C renal
Test: NCI tumour cell line growth inhibition, 48 h
Each entry below lists one item and its recorded TGI value.

Field: example entries. Status: answers known.
Query :: Given CC(C)=CCN1c2ccccc2NC(=O)CC1C (stereo unspecified) , state its recorded TGI.
Result :: 81.2 µM

Query :: Similarly, Oc1cccc(Nc2nc3ccccc3c3occc23)c1 ?
Result :: 25.9 µM

Query :: Similarly, COC(=O)/C(=N\NC(C)(C)C)C(C(=O)OC)C(=O)C(=O)Nc1cc(Cl)ccc1Cl (stereo unspecified) ?
Result :: > 100 µM

---
Query :: Given C1CSCCCSCCCSCCCSCCCSCCCSCCCSCCCSC1 , state its recorded TGI.
Result :: > 100 µM

Query :: Similarly, CCc1c2c(nc3ccc(OCc4ccc(B(O)O)cc4)cc13)-c1cc3c(c(=O)n1C2)COC(=O)[C@]3(O)CC ?
Result :: > 100 µM

Query :: Similarly, Cc1cc2c(C)nn(Cc3ccccc3)c2c(C(=O)O)c1C ?
Result :: > 100 µM

Where do these numbers come from? They come from PubChem BioAssay (NCI).
